The measured values listed here are drawn from the Deep4Chem optical property database.

METHOD: solvent given as SMILES
CONDITIONS: in CC#N
METRIC: absorption maximum (nm)
Respond with the bare value in nm.

Fill in the blank: the reported absorption maximum of `COc1ccc(-n2c3ccccc3c3cc(/C=C/C(=C(C#N)C#N)c4ccccc4)ccc32)cc1` is ____. 444

Endpoint output: absorption maximum of `CCN(CC)c1ccc2c(C#N)c(/C=C(\C#N)c3nc4ccccc4s3)c(=O)oc2c1` . Value? 597

Would you mind telling me what absorption maximum value was observed for `CN(C)c1ccc(C#Cc2ccc(C#Cc3ccc(C#Cc4ccccc4C#N)cc3C#N)cc2C#N)cc1` ? 413

---

METHOD: solvent given as SMILES
CONDITIONS: in CCCO
Record form. Attribute: absorption maximum. Fill in for each entry.
Kindly write the number and append the unit.

// absorption maximum lookup, key: `COCCOCCOCCOCCOc1ccc(OCCOCCOCCOCCOC)c(C=O)c1` 349 nm

What value of measured absorption maximum is listed for `CN1C(C(=O)Nc2ccccn2)=C([O-])c2sccc2S1(=O)=O` ? 376 nm

Entry `CCCCCCCCCCCCCCCC[n+]1ccc(/C=C/c2ccc(N(C)C)cc2)cc1` : reported absorption maximum = ? 485.6 nm

Consider the molecule shown here: `COc1ccc(/C=C/c2ccc(-c3nnc(-c4ccc(-c5cc6ccccc6s5)cc4)o3)cc2)cc1` What is its recorded absorption maximum? 345 nm

Value lookup for absorption maximum; key = `COc1ccc(/C=C/C(=O)c2ccccc2O)cc1OC` 360 nm

---

Could you please report measured absorption maximum for the items listed next?
METHOD: solvent given as SMILES
CONDITIONS: in CN(C)C=O

Look at this molecule and give its reported absorption maximum. `CCn1c2ccccc2c2cc(C#Cc3cc(C#Cc4ccc5c(c4)c4ccccc4n5CC)nc(N4CCCCC4)n3)ccc21` 398 nm

Item under review: `c1ccc(N(c2ccccc2)c2ccc(-c3cccc4nc5ccccc5cc34)cc2)cc1` . Reported absorption maximum? 390 nm

# query: absorption maximum of entry `O=C(N/N=C/c1ccccc1O)c1ccccc1O` 412 nm

---

METHOD: solvent given as SMILES
CONDITIONS: in CC#N
Kindly supply the reported absorption maximum values for the records listed here.
Please state the figure in nm; there is no need to write the unit.

Name the recorded absorption maximum for `F[B-]1(F)n2c(Nc3cccc4cccnc34)ccc2C(c2ccccc2)=C2C=CC(Cl)=[N+]21` . 547

Which absorption maximum is reported for this compound? `COc1ccccc1-n1nc(C#N)c(N2CCCC2)n1` 318

I would be grateful if you could share the reported absorption maximum for `CCC1(CC)c2cc(B(c3c(C)cc(C)cc3C)c3c(C)cc(C)cc3C)ccc2-c2ccc(N(c3ccccc3)c3ccccc3)cc21` . 394

Given `COc1ccc(/C=C/c2ccccc2)cc1OC` , state its recorded absorption maximum. 321

Entry `CCN(CC)c1ccc2c(-c3ccc(S(=O)(=O)[O-])cc3S(=O)(=O)[O-])c3ccc(=[N+](CC)CC)cc-3oc2c1` : reported absorption maximum = ? 548

Give its absorption maximum value. Item: `CN(C)c1ccc(/C=C/c2ccc(-c3cc(-c4ccccn4)nc(-c4ccccn4)c3)cc2)cc1` 379

Give its absorption maximum value. Item: `CN(C)c1cc(-c2ccc(C#Cc3ccccc3)cc2)cc2ccccc12` 302.58

---

METHOD: solvent given as SMILES
CONDITIONS: in CC#N
Would you kindly list absorption maximum for each of these molecules?
Respond numerically; units are nm and should not be typed.

Suppose we examine the molecule `OC1(c2ccc(-c3cccs3)s2)CCC1` ; what absorption maximum value has been reported? 309

# get_value(readout='absorption maximum', item= `Cc1cc(C)c(C2=C3C=C(/C=C/C(=O)OC(C)(C)C)C=[N+]3[B-](F)(F)n3c2ccc3N2CCOCC2)c(C)c1` ) 480

Which absorption maximum is listed for CCCCC(CC)CN1C(=O)c2cccc3c(C#Cc4ccc(N(c5ccc(C#Cc6ccc7c8c(cccc68)C(=O)N(CC(CC)CCCC)C7=O)cc5)c5ccc(C#Cc6ccc7c8c(cccc68)C(=O)N(CC(CC)CCCC)C7=O)cc5)cc4)ccc(c23)C1=O (stereo unspecified) ? 454

Name the reported absorption maximum value associated with the molecule `Nc1ccc2c(c1)-c1ccccc1C2=O` 409

Entry `CC(C)(C)c1ccc(C2=CC3=C(c4ccccc4)c4cc(-c5ccc(C(C)(C)C)cc5)c(-c5ccc(C(C)(C)C)cc5)n4[B-](F)(F)[N+]3=C2c2ccc(C(C)(C)C)cc2)cc1` has what absorption maximum? 590

Which absorption maximum is listed for `CCOC(=O)CN1C(=O)C2=C(c3ccc(N4CCCCC4)cc3)N(CC(=O)OCC)C(=O)C2=C1c1ccc(N2CCCCC2)cc1` ? 523

Report absorption maximum for `F[B-]1(F)OC(c2ccc3c(c2)Cc2ccccc2-3)=CC(c2ccccc2)=[O+]1` please. 412

Fill blank: measured absorption maximum of the molecule `FC(F)(F)c1ccc2c(c1)Nc1ccccc1S2` is ____. 322

Requested read-out: absorption maximum. Entry: `CN(C)c1cccc2c1C(=O)c1ccccc1-2` 444

Quick one: absorption maximum of `CN(C)CCCN1c2ccccc2Sc2ccc(Cl)cc21` ? 312

Dear colleague, I am looking for the recorded absorption maximum of the following molecule: `Cc1cc2nc3c(=O)n(C)c(=O)nc-3n(C)c2cc1C` 444

---

METHOD: solvent given as SMILES
CONDITIONS: in CC(C)O
METRIC: absorption maximum (nm)
Numbers only here, please. The scale is nm.

Give its absorption maximum value. Item: `CN(C)c1ccc(C#Cc2ccc(C=O)cc2)cc1` 380.5

Given `CCCCCCCCCCCCCCCC[n+]1ccc(/C=C/c2ccc(N(C)C)cc2)cc1` , state its recorded absorption maximum. 481.2

Can you share its absorption maximum? I mean this molecule: `CCC1=C(C)C2=C(C)c3c(C)c(-c4csc(N5CCOCC5)n4)c(C)n3[B-](F)(F)[N+]2=C1C` 518

---

Give measured absorption maximum for each item. Keep answers brief.
METHOD: solvent given as SMILES
CONDITIONS: in C1CCOC1
Be sure to follow the number with its unit.

Can you share its absorption maximum? I mean this compound: `Cc1cc(C)c(B(c2ccc3c(c2)c2cc(B(c4c(C)cc(C)cc4C)c4c(C)cc(C)cc4C)ccc2n3-c2ccc(C(=C(c3ccccc3)c3ccccc3)c3ccccc3)cc2)c2c(C)cc(C)cc2C)c(C)c1` 358 nm

# query: absorption maximum of entry `C(=C\c1nc2ccccc2[nH]1)/c1ccc(/C=C/c2nc3ccccc3[nH]2)cc1` 389 nm

Fill in: absorption maximum of O=P1(c2ccccc2)C(c2ccsc2)=C(c2ccsc2)c2ccccc21 (centres undefined) is ___ 355 nm

Endpoint output: absorption maximum of `O=C(c1ccc(N2c3ccccc3Oc3ccccc32)cc1)c1ccc2sc3ccccc3c2c1` . Value? 312 nm

Find the recorded absorption maximum belonging to `Cc1ccc(-c2ccc(-c3ccc(-c4ccc(-c5ccc(C)cc5)cc4)c(/C(=C(/c4ccccc4)c4cc(-c5ccc(-c6ccc(C)cc6)cc5)ccc4-c4ccc(-c5ccc(C)cc5)cc4)c4ccccc4)c3)cc2)cc1` and report it. 308 nm

# get_value(readout='absorption maximum', item= `c1ccc(N(c2ccccc2)c2ccc(-c3cccc4nc5ccccc5cc34)cc2)cc1` ) 391 nm

May I ask what absorption maximum has been recorded for `CCN(CC)c1ccc(-c2nc3c(nc2-c2ccc(B(c4c(C)cc(C)cc4C)c4c(C)cc(C)cc4C)cc2)c2ccccc2n3C)cc1` ? 405 nm

Please look up its absorption maximum: `O=c1oc2cccc3c4cccc5ccc6c7cc(F)ccc7c1c(c23)c6c54` 411 nm

# get_value(readout='absorption maximum', item= `C(=C\c1ccc(-c2nnc(-c3ccc(/C=C/c4ccc(-c5nc(-c6ccccc6)c(-c6ccccc6)[nH]5)cc4)cc3)o2)cc1)/c1ccc(-c2nc(-c3ccccc3)c(-c3ccccc3)[nH]2)cc1` ) 396 nm

Query: absorption maximum; subject: `F[B-]1(F)n2c(-c3cccs3)cc(-c3cccs3)c2N=C2C(c3cccs3)=CC(c3cccs3)=[N+]21` 740 nm

Field request: absorption maximum | item: `Cc1nc(-c2ccc(-n3c4ccccc4c4ccccc43)cc2)cc(-c2ccc(-n3c4ccccc4c4ccccc43)cc2)n1` 343 nm

Which absorption maximum is reported for this compound? `CC(=O)c1c2c(cc3cc(N(C)C)ccc13)CCC2` 370 nm

Using the record for CC1(C)CC(=O)C2=C(C1)Oc1ccc3ccccc3c1C2c1ccccn1 (centres undefined) , report its absorption maximum. 275 nm

Which measured absorption maximum value corresponds to `COC(=O)c1ccc(-c2ccc3c(c2)C(=O)c2cc(-c4ccc(C(=O)OC)cc4)ccc2-3)cc1` ? 342 nm

---

METHOD: solvent given as SMILES
CONDITIONS: in C1CCOC1
In plain terms, low absorption maximum, meaning strictly below 400 nm, gives rule met, and everything else gives rule not met.

I wonder whether `CC(C)(C)c1ccc(C2=CC3=C(c4ccccc4)c4cc(-c5ccc(C(C)(C)C)cc5)c(-c5ccc(C(C)(C)C)cc5)n4[B-](F)(F)[N+]3=C2c2ccc(C(C)(C)C)cc2)cc1` has absorption maximum below 400 nm. Can you tell? rule not met

is_below(absorption maximum, 400 nm) for `CCn1c2ccccc2c2cc(-c3cc(-c4ccc5c(c4)c4ccccc4n5CC)ncn3)ccc21` ? rule met

Strictly below 400 nm in absorption maximum? `CCOC(=O)/C=C/c1ccc(N(C)C)cc1` rule met

Dear reviewer, please state whether `c1ccc2c(-n3cnc4ccccc43)cccc2c1` has absorption maximum strictly beneath 400 nm. rule met

Just wondering, is absorption maximum of `CCn1c2ccccc2c2cc(-c3cc(-c4ccc5c(c4)c4ccccc4n5CC)nc(-c4ccc(OC)cc4)n3)ccc21` below 400 nm? rule met

Would you kindly verify if absorption maximum of `N#Cc1ccc(/C=C/c2ccc(C=C(c3ccccc3)c3ccccc3)cc2)cc1` is strictly less than 400 nm? rule met

Find out if reported absorption maximum for `CC1=N/C(=C\c2cc(N(C)C)ccc2C#N)C(=O)N1C` is less than 400 nm rule met

Identify whether the compound `CCn1c2ccccc2c2cc(-c3cc(-c4ccc5c(c4)c4ccccc4n5CC)nc(C#N)n3)ccc21` records absorption maximum below 400 nm. rule met

Given `O=C(N/N=C/c1ccccc1O)c1ccccc1O` , is recorded absorption maximum strictly lower than 400 nm? rule met

Check if absorption maximum falls below 400 nm for `CCCCCCCCN1c2ccc(C#Cc3ccc(OC)cc3)cc2Sc2cc(C=O)ccc21` . rule met

API: query returns whether the compound falls strictly under 400 nm in absorption maximum. Query: `Cc1s[c+](N2CCOCC2)sc1-c1cc(I)cc(I)c1[O-]` rule not met

Quick check: does `COc1cc2oc(=O)c3c4ccc(N(C)C)cc4c4ccc5cccc6c(c1)c2c3c4c56` have absorption maximum under 400 nm? rule not met

A record lists `CCCCCCc1ccc2c3c(ccc2c1)O[B-](F)(F)[N+](c1cc([N+]2=Cc4c(ccc5cc(CCCCCC)ccc45)O[B-]2(F)F)cc([N+]2=Cc4c(ccc5cc(CCCCCC)ccc45)O[B-]2(F)F)c1)=C3` . Is its absorption maximum below 400 nm? rule not met
